The following compounds are listed with their measured relative viability values.
system: NCI-H1734; assay: relative viability (nuclei count vs DMSO), 5 days (fraction); higher = more cells survive; conditions: first compound 1.265 µM
measure: relative viability

1. COc1cc(N2CCC(C(N)=O)CC2)ccc1Nc1nc(N)c(Cl)c(Nc2ccccc2S(=O)(=O)C(C)C)n1 [HG-5-88-01] + COc1cc2c(Oc3ccc(NC(=O)C4(C(=O)Nc5ccc(F)cc5)CC4)cc3F)ccnc2cc1OCCCN1CCOCC1 [Foretinib] (partner 0.25 µM) :: 0.576
2. COc1cc(N2CCC(C(N)=O)CC2)ccc1Nc1nc(N)c(Cl)c(Nc2ccccc2S(=O)(=O)C(C)C)n1 [HG-5-88-01] + N=C(N)NC(=N)NCCc1ccccc1 [Phenformin] (partner 250 µM) :: 0.371
3. COc1cc(N2CCC(C(N)=O)CC2)ccc1Nc1nc(N)c(Cl)c(Nc2ccccc2S(=O)(=O)C(C)C)n1 [HG-5-88-01] + Nc1nc2[nH]cc(CCc3ccc(C(=O)N[C@@H](CCC(=O)O)C(=O)O)cc3)c2c(=O)[nH]1 [Pemetrexed] (partner 0.2 µM) :: 0.391
4. Clc1ccc(Nc2nnc(Cc3ccncc3)c3ccccc23)cc1 [Vatalanib] + Cc1cc(Nc2cc(N3CCN(C)CC3)nc(Sc3ccc(NC(=O)C4CC4)cc3)n2)n[nH]1 [Tozasertib] (partner 0.1 µM) :: 0.276

* * *

test system: HARA; experiment: relative viability (nuclei count vs DMSO), 5 days (fraction); higher = more cells survive; details: first compound 0.1265 µM
measure: relative viability

1. COc1cc(N2CCC(C(N)=O)CC2)ccc1Nc1nc(N)c(Cl)c(Nc2ccccc2S(=O)(=O)C(C)C)n1 [HG-5-88-01] + Cc1cc(Nc2cc(N3CCN(C)CC3)nc(Sc3ccc(NC(=O)C4CC4)cc3)n2)n[nH]1 [Tozasertib] (partner 0.1 µM) :: 0.132
2. Clc1ccc(Nc2nnc(Cc3ccncc3)c3ccccc23)cc1 [Vatalanib] + CS(=O)(=O)N1CCN(Cc2cc3nc(-c4cccc5[nH]ncc45)nc(N4CCOCC4)c3s2)CC1 [Pictilisib] (partner 1 µM) :: 0.414
3. COc1cc(N2CCC(C(N)=O)CC2)ccc1Nc1nc(N)c(Cl)c(Nc2ccccc2S(=O)(=O)C(C)C)n1 [HG-5-88-01] + C[C@]1(O)C[C@@H](c2nc(-c3ccc4ccc(-c5ccccc5)nc4c3)c3c(N)nccn32)C1 [Linsitinib] (partner 1 µM) :: 0.916
4. Clc1ccc(Nc2nnc(Cc3ccncc3)c3ccccc23)cc1 [Vatalanib] + CS(=O)(=O)CCNCc1ccc(-c2ccc3ncnc(Nc4ccc(OCc5cccc(F)c5)c(Cl)c4)c3c2)o1 [Lapatinib] (partner 2 µM) :: 0.694
5. C[C@@H]1CN(CC(=O)Nc2ccc3c(c2)Cc2cccc(-c4cc(=O)cc(N5CCOCC5)o4)c2S3)C[C@H](C)O1 + CC(=O)Nc1cccc(-n2c(=O)n(C3CC3)c(=O)c3c(Nc4ccc(I)cc4F)n(C)c(=O)c(C)c32)c1 [Trametinib] (partner 0.02 µM) :: 0.654

* * *

tested on: HCC-15; test: relative viability (nuclei count vs DMSO), 5 days (fraction); higher = more cells survive; settings: first compound 0.4 µM
The following compounds are listed with their measured relative viability values.
measure: relative viability

1. C[C@@H]1CN(CC(=O)Nc2ccc3c(c2)Cc2cccc(-c4cc(=O)cc(N5CCOCC5)o4)c2S3)C[C@H](C)O1 + CC(=O)c1c(C)c2cnc(Nc3ccc(N4CCNCC4)cn3)nc2n(C2CCCC2)c1=O [Palbociclib] (partner 0.5 µM) :: 0.751
2. C[C@@H]1CN(CC(=O)Nc2ccc3c(c2)Cc2cccc(-c4cc(=O)cc(N5CCOCC5)o4)c2S3)C[C@H](C)O1 + CS(=O)(=O)CCNCc1ccc(-c2ccc3ncnc(Nc4ccc(OCc5cccc(F)c5)c(Cl)c4)c3c2)o1 [Lapatinib] (partner 2 µM) :: 0.929
3. COc1cc(N2CCC(C(N)=O)CC2)ccc1Nc1nc(N)c(Cl)c(Nc2ccccc2S(=O)(=O)C(C)C)n1 [HG-5-88-01] + CC(C)C[C@H](NC(=O)[C@H](Cc1ccccc1)NC(=O)c1cnccn1)B(O)O [Bortezomib] (partner 0.002 µM) :: 0.966
4. Clc1ccc(Nc2nnc(Cc3ccncc3)c3ccccc23)cc1 [Vatalanib] + NC(=O)Nc1cc(-c2cccc(F)c2)sc1C(=O)N[C@H]1CCCNC1 [AZD7762] (partner 0.2 µM) :: 1.13

* * *

The following compounds are listed with their measured relative viability values.
test system: NCI-H460; experiment: relative viability (nuclei count vs DMSO), 5 days (fraction); higher = more cells survive; conditions: first compound 0.08 µM
measure: relative viability

1. CCCCCCCCCCCC1=C(O)C(=O)C=C(O)C1=O [Embelin] + CC1(C)CCC(c2ccc(Cl)cc2)=C(CN2CCN(c3ccc(C(=O)NS(=O)(=O)c4ccc(N[C@H](CCN5CCOCC5)CSc5ccccc5)c(S(=O)(=O)C(F)(F)F)c4)cc3)CC2)C1 [Navitoclax] (partner 0.5 µM) :: 1.07
2. CCCCCCCCCCCC1=C(O)C(=O)C=C(O)C1=O [Embelin] + CS(=O)(=O)CCNCc1ccc(-c2ccc3ncnc(Nc4ccc(OCc5cccc(F)c5)c(Cl)c4)c3c2)o1 [Lapatinib] (partner 2 µM) :: 1.04
3. CCCCCCCCCCCC1=C(O)C(=O)C=C(O)C1=O [Embelin] + Nc1nc2[nH]cc(CCc3ccc(C(=O)N[C@@H](CCC(=O)O)C(=O)O)cc3)c2c(=O)[nH]1 [Pemetrexed] (partner 0.2 µM) :: 0.0662
4. CCCCCCCCCCCC1=C(O)C(=O)C=C(O)C1=O [Embelin] + C[C@]1(O)C[C@@H](c2nc(-c3ccc4ccc(-c5ccccc5)nc4c3)c3c(N)nccn32)C1 [Linsitinib] (partner 1 µM) :: 0.808

* * *

test system: NCI-H2347; assay: relative viability (nuclei count vs DMSO), 5 days (fraction); higher = more cells survive; conditions: first compound 2.53 µM
The following compounds are listed with their measured relative viability values.
measure: relative viability

1. CCCCCCCCCCCC1=C(O)C(=O)C=C(O)C1=O [Embelin] + CS(=O)(=O)CCNCc1ccc(-c2ccc3ncnc(Nc4ccc(OCc5cccc(F)c5)c(Cl)c4)c3c2)o1 [Lapatinib] (partner 2 µM) :: 0.968
2. CCCCCCCCCCCC1=C(O)C(=O)C=C(O)C1=O [Embelin] + CC(C)C[C@H](NC(=O)[C@H](Cc1ccccc1)NC(=O)c1cnccn1)B(O)O [Bortezomib] (partner 0.002 µM) :: 1.15
3. CCCCCCCCCCCC1=C(O)C(=O)C=C(O)C1=O [Embelin] + N=C(N)NC(=N)NCCc1ccccc1 [Phenformin] (partner 250 µM) :: 0.345
4. CCCCCCCCCCCC1=C(O)C(=O)C=C(O)C1=O [Embelin] + CC(=O)c1c(C)c2cnc(Nc3ccc(N4CCNCC4)cn3)nc2n(C2CCCC2)c1=O [Palbociclib] (partner 0.5 µM) :: 0.451
5. CCCCCCCCCCCC1=C(O)C(=O)C=C(O)C1=O [Embelin] + CS(=O)(=O)N1CCN(Cc2cc3nc(-c4cccc5[nH]ncc45)nc(N4CCOCC4)c3s2)CC1 [Pictilisib] (partner 1 µM) :: 0.924

* * *

The following compounds are listed with their measured relative viability values.
test system: NCI-H1650; assay: relative viability (nuclei count vs DMSO), 5 days (fraction); higher = more cells survive; details: first compound 0.1265 µM
measure: relative viability

1) Clc1ccc(Nc2nnc(Cc3ccncc3)c3ccccc23)cc1 [Vatalanib] + Nc1ncn([C@H]2C[C@H](O)[C@@H](CO)O2)c(=O)n1 [Decitabine] (partner 2 µM) :: 0.414
2) COc1cc(N2CCC(C(N)=O)CC2)ccc1Nc1nc(N)c(Cl)c(Nc2ccccc2S(=O)(=O)C(C)C)n1 [HG-5-88-01] + Cc1cc(Nc2cc(N3CCN(C)CC3)nc(Sc3ccc(NC(=O)C4CC4)cc3)n2)n[nH]1 [Tozasertib] (partner 0.1 µM) :: 0.396
3) Clc1ccc(Nc2nnc(Cc3ccncc3)c3ccccc23)cc1 [Vatalanib] + CS(=O)(=O)N1CCN(Cc2cc3nc(-c4cccc5[nH]ncc45)nc(N4CCOCC4)c3s2)CC1 [Pictilisib] (partner 1 µM) :: 0.556
4) Clc1ccc(Nc2nnc(Cc3ccncc3)c3ccccc23)cc1 [Vatalanib] + Nc1nc2[nH]cc(CCc3ccc(C(=O)N[C@@H](CCC(=O)O)C(=O)O)cc3)c2c(=O)[nH]1 [Pemetrexed] (partner 0.2 µM) :: 0.305
5) COc1cc(N2CCC(C(N)=O)CC2)ccc1Nc1nc(N)c(Cl)c(Nc2ccccc2S(=O)(=O)C(C)C)n1 [HG-5-88-01] + CC(=O)Nc1cccc(-n2c(=O)n(C3CC3)c(=O)c3c(Nc4ccc(I)cc4F)n(C)c(=O)c(C)c32)c1 [Trametinib] (partner 0.02 µM) :: 0.633
6) C[C@@H]1CN(CC(=O)Nc2ccc3c(c2)Cc2cccc(-c4cc(=O)cc(N5CCOCC5)o4)c2S3)C[C@H](C)O1 + Cc1nc(Nc2ncc(C(=O)Nc3c(C)cccc3Cl)s2)cc(N2CCN(CCO)CC2)n1 [Dasatinib] (partner 0.075 µM) :: 0.293
7) C[C@@H]1CN(CC(=O)Nc2ccc3c(c2)Cc2cccc(-c4cc(=O)cc(N5CCOCC5)o4)c2S3)C[C@H](C)O1 + Nc1ncn([C@H]2C[C@H](O)[C@@H](CO)O2)c(=O)n1 [Decitabine] (partner 2 µM) :: 0.44
8) COc1cc(N2CCC(C(N)=O)CC2)ccc1Nc1nc(N)c(Cl)c(Nc2ccccc2S(=O)(=O)C(C)C)n1 [HG-5-88-01] + COc1cc2c(Oc3ccc(NC(=O)C4(C(=O)Nc5ccc(F)cc5)CC4)cc3F)ccnc2cc1OCCCN1CCOCC1 [Foretinib] (partner 0.25 µM) :: 1.2
9) COc1cc(N2CCC(C(N)=O)CC2)ccc1Nc1nc(N)c(Cl)c(Nc2ccccc2S(=O)(=O)C(C)C)n1 [HG-5-88-01] + O=C(CCCCCCC(=O)Nc1ccccc1)NO [Vorinostat] (partner 1 µM) :: 0.654
